Each entry below lists one item and its recorded IC50 value.
# EXPERIMENTAL_TARGET: MUS81–EME1 (Homo sapiens, UniProt Q96NY9)
# Construct: The MUS81–EME1 full-length expression plasmid was obtained from Stephen C; West; made in house; host or cells: Escherichia coli
# Sequence (Q96NY9 1-551): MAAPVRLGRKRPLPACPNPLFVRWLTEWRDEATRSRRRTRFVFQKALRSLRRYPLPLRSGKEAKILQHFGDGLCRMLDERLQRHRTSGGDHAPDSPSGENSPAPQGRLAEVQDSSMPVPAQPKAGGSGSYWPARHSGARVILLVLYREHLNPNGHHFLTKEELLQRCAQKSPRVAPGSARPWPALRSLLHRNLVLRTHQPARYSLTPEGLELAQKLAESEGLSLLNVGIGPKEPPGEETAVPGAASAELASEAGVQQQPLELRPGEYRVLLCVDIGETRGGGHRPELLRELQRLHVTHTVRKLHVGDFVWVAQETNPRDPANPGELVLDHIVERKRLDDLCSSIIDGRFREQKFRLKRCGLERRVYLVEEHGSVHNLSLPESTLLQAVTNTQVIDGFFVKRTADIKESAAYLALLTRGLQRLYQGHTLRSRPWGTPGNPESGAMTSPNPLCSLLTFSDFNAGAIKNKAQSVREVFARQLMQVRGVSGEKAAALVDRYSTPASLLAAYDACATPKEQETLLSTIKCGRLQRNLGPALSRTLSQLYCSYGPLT
# Sequence (Q96AY2 1-570 partner): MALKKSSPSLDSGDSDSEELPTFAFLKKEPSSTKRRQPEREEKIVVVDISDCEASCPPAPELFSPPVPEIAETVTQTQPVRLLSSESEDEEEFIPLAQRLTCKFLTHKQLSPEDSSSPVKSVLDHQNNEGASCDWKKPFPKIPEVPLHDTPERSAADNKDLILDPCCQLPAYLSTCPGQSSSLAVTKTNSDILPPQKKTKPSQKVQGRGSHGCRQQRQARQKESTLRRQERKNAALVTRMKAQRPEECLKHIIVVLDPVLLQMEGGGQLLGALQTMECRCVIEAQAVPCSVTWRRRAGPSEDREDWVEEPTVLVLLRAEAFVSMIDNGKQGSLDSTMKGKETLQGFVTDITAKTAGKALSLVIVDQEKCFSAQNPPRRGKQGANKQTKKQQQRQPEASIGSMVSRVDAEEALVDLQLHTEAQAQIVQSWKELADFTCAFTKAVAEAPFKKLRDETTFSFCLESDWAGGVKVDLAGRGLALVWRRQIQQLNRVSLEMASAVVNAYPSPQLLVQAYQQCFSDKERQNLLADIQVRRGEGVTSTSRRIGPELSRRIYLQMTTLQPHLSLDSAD
# TEST_DETAILS: Gel-based in vitro nuclease assay: cleavage of 3′flap DNA by purified MUS81–EME1
# Format: biochemical
# MEASUREMENT_CONDITIONS: Table 2, in vitro

Worked cases, answers included:
{"SMILES_DATA": "Cc1cc(=O)[nH]c(-n2nc(-c3ccccc3)cc2N(C)C(=O)c2cc(-c3ccccc3)on2)n1", "EXPERIMENTAL_TARGET": "MUS81–EME1 (Homo sapiens, UniProt Q96NY9)", "IC50": "> 10 µM"}
{"SMILES_DATA": "Cc1cc(=O)[nH]c(-n2nc(-c3ccccc3)cc2NC(=O)c2cc(C3CCCCC3)on2)n1", "EXPERIMENTAL_TARGET": "MUS81–EME1 (Homo sapiens, UniProt Q96NY9)", "IC50": "> 10 µM"}
{"SMILES_DATA": "Cc1cc(=O)[nH]c(-n2nc(C3CCCCC3)cc2NC(=O)c2cc(-c3ccccc3)on2)n1", "EXPERIMENTAL_TARGET": "MUS81–EME1 (Homo sapiens, UniProt Q96NY9)", "IC50": "> 10 µM"}
{"SMILES_DATA": "Cc1cc(=O)[nH]c(-n2nc(-c3ccccc3)cc2NC(=O)c2cc(-c3ccccc3Br)on2)n1", "EXPERIMENTAL_TARGET": "MUS81–EME1 (Homo sapiens, UniProt Q96NY9)", "IC50": "> 10 µM"}
{"SMILES_DATA": "Cc1cc(=O)[nH]c(-n2nc(-c3ccccc3)cc2NC(=O)c2csc(-c3ccccc3)n2)n1", "EXPERIMENTAL_TARGET": "MUS81–EME1 (Homo sapiens, UniProt Q96NY9)", "IC50": "> 10 µM"}
{"SMILES_DATA": "O=C(Nc1cc(-c2ccccc2)nn1-c1ccccc1)c1cc(-c2ccccc2)on1", "EXPERIMENTAL_TARGET": "MUS81–EME1 (Homo sapiens, UniProt Q96NY9)", "IC50": "> 10 µM"}

Ask | IC50 lookup needed for COc1ccc(-c2cc(C(=O)Nc3cc(-c4ccccc4)nn3-c3nc(C)cc(=O)[nH]3)no2)cc1 , thanks.
Reply | > 10 µM

Ask | Looking for the measured IC50 of Cc1cc(=O)[nH]c(-n2nc(-c3ccccc3)c(C)c2NC(=O)c2cc(-c3ccccc3)on2)n1 , can you help?
Reply | > 10 µM
